These data points were gathered from patent US6849634B2.

# assay_system: Kv1.5 (Homo sapiens, UniProt P22460)
# Construct: expressed in transfected cells; host or cells: CHO cells
# Sequence (P22460 whole entry): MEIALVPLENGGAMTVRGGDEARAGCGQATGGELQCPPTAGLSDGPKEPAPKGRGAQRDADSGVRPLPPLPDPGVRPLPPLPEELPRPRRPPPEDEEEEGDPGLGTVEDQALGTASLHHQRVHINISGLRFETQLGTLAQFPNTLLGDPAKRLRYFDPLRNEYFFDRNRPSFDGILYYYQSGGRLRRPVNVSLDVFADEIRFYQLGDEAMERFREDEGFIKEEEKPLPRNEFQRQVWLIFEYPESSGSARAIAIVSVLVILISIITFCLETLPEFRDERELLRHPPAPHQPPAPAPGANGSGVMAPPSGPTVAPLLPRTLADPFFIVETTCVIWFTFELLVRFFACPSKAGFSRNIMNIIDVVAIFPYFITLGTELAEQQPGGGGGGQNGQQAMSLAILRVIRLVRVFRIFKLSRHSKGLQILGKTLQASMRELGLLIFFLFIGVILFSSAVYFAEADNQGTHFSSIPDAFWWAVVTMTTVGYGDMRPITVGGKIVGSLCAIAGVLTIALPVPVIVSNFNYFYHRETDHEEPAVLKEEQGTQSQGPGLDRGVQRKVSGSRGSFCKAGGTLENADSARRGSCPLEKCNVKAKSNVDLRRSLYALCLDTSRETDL
# experiment_notes: Kv1.5 inhibition by patch clamp technique
# Assay type: cell-based
# cond: inhibitors of Kv1.5
# Text: The pharmacological profile of the potassium channel inhibitory activity of the compounds of the present invention can be readily assessed by those skilled in the art using routine experimentation, such as the procedures and techniques illustrated in the examples which follow. […] These and other known techniques can be readily employed by those skilled in the art to assess the activity level of the potassium channel inhibitor compounds of the present invention. […]
Classification field: 1 = inhibition at 0.1 µM at or over 40%; -1 = inhibition at 0.1 µM under 40%.

> print(dat)
                                   compound                          assay.system  class
1  O=C(NCc1cccs1)c1cccnc1Nc1ccc2c(c1)C(NS(=O)(=O)c1ccc(F)cc1)CC2 (stereo not shown)  Kv1.5 (Homo sapiens, UniProt P22460)     -1
2  CCCNC(=O)c1cccnc1Nc1ccc2c(c1)C(NS(=O)(=O)c1ccc(CC)cc1)CC2 (stereo not shown)  Kv1.5 (Homo sapiens, UniProt P22460)     -1
3  CCc1ccc(S(=O)(=O)NC2CCc3ccc(Nc4ncccc4NC(=O)CCc4ccccc4)cc32)cc1 (stereo not shown)  Kv1.5 (Homo sapiens, UniProt P22460)      1
4  CCc1ccc(S(=O)(=O)NC2CCc3ccc(Nc4ncccc4C(=O)NCc4ccco4)cc32)cc1 (stereo not shown)  Kv1.5 (Homo sapiens, UniProt P22460)      1
5  O=C(NCCc1ccccc1)c1cccnc1Nc1ccc2c(c1)C(NS(=O)(=O)c1ccc(F)cc1)CC2 (stereo not shown)  Kv1.5 (Homo sapiens, UniProt P22460)     -1
6  C=CCNC(=O)c1cccnc1Nc1ccc2c(c1)C(NS(=O)(=O)c1ccc(CC)cc1)CC2 (stereo not shown)  Kv1.5 (Homo sapiens, UniProt P22460)     -1
7  C#CCNC(=O)c1cccnc1Nc1ccc2c(c1)C(NS(=O)(=O)c1ccc(CC)cc1)CC2 (stereo not shown)  Kv1.5 (Homo sapiens, UniProt P22460)      1
